The following variants are listed with their measured polymerase ribozyme fitness (log ratio) values.
B1: TPR t1 (parent)
chain: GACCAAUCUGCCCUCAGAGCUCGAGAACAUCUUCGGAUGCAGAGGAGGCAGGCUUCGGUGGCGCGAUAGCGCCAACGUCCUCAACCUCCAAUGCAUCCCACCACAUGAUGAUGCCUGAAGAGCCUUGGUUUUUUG

Variants of: B1
Test: polymerase ribozyme fitness, log enrichment relative to wild type (log ratio); higher = more active; in vitro selection for triplet polymerase activity
The answer should be a number; do not append a unit.

Check out these entries, answers already filled in.
1. GACCAAUCUGCCCUCAGAGCUCGAGAACAUCUUCGGAUGCAGAGGAGGCAGGUUUCGGUGGGGCGAUAGCGCCAACGUCCUCAACCUCCAAUGCAUCCCACCACAUGAUGAUGCCUGAAGAGCCUUGGUUUUUUG [C53U C62G]	-1.49
2. GACCAAUCUGCCCUCAGAGCUCGAGAACAUCUUCGGAUGCAGAGGAGGCAGGCUUCGGUGGCGCGAUACCGCCAACGUCCUCAACCUCCAAUGCAUACCACCACAUGAUGAUGCCUGAAGAGCCUUGGUUUUUUG [G69C C97A]	-6.49
3. GACCAAUGUGCCCUCAGAGCUCGAGAACAUCUUCGGAUGCAGUGGAGGCAGGCCUCGGUGGCGCGAUAGCGGCAACGUCCUCAACCUCCAAUGCAUCCCACCACAUGAUGAUGACUGGAGAGCCUUGGUUUUUUG [C8G A43U U54C C72G C114A A118G]	-5.83
4. GACCAAUCUGCCCUCUGAGCUGGAGAACAUCUUCGGAUGCAGAGGAGGCAGGCUUCGGUGGCGUGAUAGCGCCAACGUCCUCAACCUCCAAUGCAUCCCACCACAUGAUGAUGCCUGAAGAGCCUUGGUUUUUUG [A16U C22G C64U]	-4.96
5. GACCAAUCUGCCGUCAGAGCUCGAGAACAUCUUCGGAUGCAGAGGAGGCAUGCUUCGGUGGCGCGAUAGCGGCAACGUCCUCAACCUCCAAUGCAUCCCACCACAUGAUGCUGCCUGAAGAGCCUUGGUUUUUUG [C13G G51U C72G A111C]	-6.15
6. GACCAAUCUGCCCUCAGAGCUCGAGAACAUCUUCGGAUGCAGAGGAGGCAGGUUUCGGUGGCACGAUAGCGCCAACGUCAUCAACCUCCAAUGCAUCCCACCACCUGAUGAUUCCUGAAGAGCCUUGGUUUUUUG [C53U G63A C80A A105C G113U]	-6.53

INPUT: Using known records, supply polymerase ribozyme fitness (log ratio) for GACCAAUCUGGCCUCAGAGCUCGAGAACAUCUUCGGAUGCAGAGGAGGCAGGCUUCGGUGCCGCGAUAGCGCCAACGUCCUCAACCUCCAAUGCAUCCCACCACAUGAUGAUGCCUGAAGAGCCUUGGUUUUUUG [C11G G61C]
OUTPUT: -1.35

INPUT: Quote polymerase ribozyme fitness (log ratio) reported for GACCAAUCUGCCCUCAGAGCUCGAGAACAUCUUCGGAUGCAGAGGAGGCAGGCUUCGGUGGCGCGAUAGCGCCAACGUCCUCAACCUCCAAUGCAUCCCACCACAUGAUGAUGCCUGAAGCGCCUAGGUUUUUUG [A121C U126A] please.
OUTPUT: 0.358

INPUT: Give the value of polymerase ribozyme fitness (log ratio) reported for the following: GACCAAUCUGCCCUCAGAGCUCGAGAACAUCUUCGGAUGCAGAGGAGGCAGGCUUCGGUGGCGCGAUAGCGCCAACGUCCUCAACCUCCAAUGCAUCACACCACAUGAUGAUGCCUGAACAGCCUUGGUUUUUUG [C98A G120C]
OUTPUT: -4.15

INPUT: Check the records and state polymerase ribozyme fitness (log ratio) for GACCAAUCUGCCCUCAGAGCUCGAGUACAUCUUCGGAUGCAGAGGAGGCAGGUUUCGGUGGCGCGAUAGCGCCAACGUCCUCAACCUCCAAUGCAUCCCACCACAUGAUGAUGCCUGAAGAGCCUUGGUUUUUUG [A26U C53U]
OUTPUT: -3.26

INPUT: Given the variant GACCAAUCUUGCCUCAGAGCUCGAGAACAUCUUCAGAUGCAGAGGAGGCAGGCUUCGGUGGCGUGAUAGCGCCAACGUCCUCAACCUCCAAUGCAUCCCACCACAUGAUGAUGCCUGAAGAGACUUGGUUUUUUG [G10U C11G G35A C64U C123A] , write its reported polymerase ribozyme fitness (log ratio).
OUTPUT: -5.01

INPUT: Supply measured polymerase ribozyme fitness (log ratio) of GACCAAUCUGCCCUCAGAGCUCGAGAACAUCUUCGGAUGCAGAGGAGGCAGGCUUCGGUGGCGCGAUAGGGCCAACGUCCUCAACCUCCAAUGCAUCCCACCAUAUGAUGAUGCCUGAAGAGCCUUCGUUUUUUG [C70G C104U G127C] in your reply.
OUTPUT: -2.51

INPUT: Look up polymerase ribozyme fitness (log ratio) of GACUAAUCUGCCCUCAGAGCUCGAGAACAUCUUCGGAUGCAGAGGAGGCAGGCUUCGGUGGCGCGAUAUCGCCAACGUCCUCAACCUCCAAUUCAUCCCACCACAUGAUGAUGCCUGAAGAGCCUUGGUUUUUUG [C4U G69U G93U] and report it.
OUTPUT: -1.17

INPUT: Answer with reported polymerase ribozyme fitness (log ratio) of GACCAAUCUGCCCUCAGAGCUCGAGAACAUCUUCGGAUGCAGAGGAGGCAGGCUUGGGUGGCGCGAUAGCGCCAACGUCCUCAACCCCCAAUGCAUCCCACCACAUGAUGAUGCCUGAAGAGCCUUGGUUUUUUG [C56G U87C]
OUTPUT: -0.336

INPUT: Given the variant GACCAAUCUGCCCUCAGAGCUCGAGAACAUCUUCGGAUGUAGAGGAGGCAAGCUUCGGUUGCGCGAUAGCGCCAACGUCCUGAACCUCCAAUGCAACCCACCACAUGAUGAUGCCGGAAGAGCCUUGGUUUUUUG [C40U G51A G60U C82G U96A U116G] , write its reported polymerase ribozyme fitness (log ratio).
OUTPUT: -6.02
